Ref: ChEMBL document CHEMBL3588773

Assay text: Volume of distribution at steady state in Sprague-Dawley rat at 2.5 mg/kg
Type: ADME, organism-based
Condition label: in vivo, read-out: Vdss
Label -1 if Vd falls below 2 L/kg; label 1 in every other case.

1. CC(C)(NC(=O)N1Cc2nc(N)nc(-c3c(Cl)cc(Cl)cc3OCCn3cc(F)cn3)c2C1)C12CC(C1)C2 1
2. CC(F)(F)CC(C)(C)NC(=O)N1Cc2nc(N)nc(-c3c(Cl)cc(Cl)cc3OCCn3cccn3)c2C1 -1
3. CC(C)(CC(F)(F)F)NC(=O)N1Cc2nc(N)nc(-c3c(Cl)cc(Cl)cc3OCCn3cc(F)cn3)c2C1 1

Please indicate if the recorded Vd for `CC(C)(NC(=O)N1Cc2nc(N)nc(-c3c(Cl)cc(Cl)cc3OCCn3cccn3)c2C1)C12CC(C1)C2` meets or exceeds 2 L/kg. -1

Please indicate if the recorded Vd for `CC(F)(F)CC(C)(C)NC(=O)N1Cc2nc(N)nc(-c3c(Cl)cc(Cl)cc3OCCn3cc(F)cn3)c2C1` meets or exceeds 2 L/kg. 1

###

Below is a list of entries, each paired with its recorded logP value.
Assay text: Lipophilicity, log P of the compound
Condition label: octanol/water

Compound	Test result
CN(C)CCC(c1ccc(Cl)cc1)c1ccccn1 (centres undefined)	3.4

Name the recorded logP of the compound listed here: COCCOC(=O)C1=C(C)NC(C)=C(C(=O)OC(C)C)C1c1cccc([N+](=O)[O-])c1 (centres undefined) 4.2

Name the recorded logP of the compound listed here: CC(C(=O)O)c1cccc(C(=O)c2ccccc2)c1 (centres undefined) 2.9

Name the recorded logP of the compound listed here: CCOC(=O)C1=C(COCCN)NC(C)=C(C(=O)OC)C1c1ccccc1Cl (centres undefined) 3.3

###

Assay text: Unbound fraction in human plasma
Type: ADME, cell-free
Observable: fraction unbound
Reply briefly: the number, and no unit.

Name the recorded fraction unbound of the compound listed here: CNCCC(Oc1ccc(C(F)(F)F)cc1)c1ccccc1 (stereo unspecified) 0.06

###

Assay text: Distribution coefficient, log D of the compound
Assay type: physicochemical
Condition label: octanol/water; read-out: logD
Label Not satisfied if logD falls below 0.7; label Satisfied in every other case.

See these solved cases before continuing.
Compound	Class assignment
CN(C)CCC(c1ccc(Cl)cc1)c1ccccn1 (stereo not given)	Satisfied
CCOC(=O)C1=C(COCCN)NC(C)=C(C(=O)OC)C1c1ccccc1Cl (stereo not given)	Satisfied
CC(C(=O)O)c1cccc(C(=O)c2ccccc2)c1 (stereo not given)	Not satisfied

Please indicate if the recorded logD for COCCc1ccc(OCC(O)CNC(C)C)cc1 (stereo not given) meets or exceeds 0.7. Not satisfied

###

Assay text: Dissociation constant of the compound
Format: physicochemical
Observable: pKa
Reply briefly: the number, and no unit.

Name the recorded pKa of the compound listed here: CNCCC(Oc1ccc(C(F)(F)F)cc1)c1ccccc1 (stereo unspecified) 10.5

###

Tested on: Heat shock protein HSP90 (Homo sapiens, UniProt P07900+P08238)
Assay text: Inhibition of human recombinant HSP90 by scintillation proximity competition binding assay
Assay type: protein assay
Observable: Ki (nM)
// units = nM; emit number, no label

Take a look at these entries with their results.
1. CC(C)(NC(=O)N1Cc2nc(N)nc(-c3c(Cl)cc(Cl)cc3OCCn3cc(F)cn3)c2C1)C12CC(C1)C2 3.3
2. CC(F)(F)CC(C)(C)NC(=O)N1Cc2nc(N)nc(-c3c(Cl)cc(Cl)cc3OCCn3cc(F)cn3)c2C1 1.7
3. CC(C)(CC(F)(F)F)NC(=O)N1Cc2nc(N)nc(-c3c(Cl)cc(Cl)cc3OCCn3cccn3)c2C1 9.7
4. CC(F)(F)CC(C)(C)NC(=O)N1Cc2nc(N)nc(-c3c(Cl)cc(Cl)cc3OCCn3cccn3)c2C1 6.6
5. CC(C)(NC(=O)N1Cc2nc(N)nc(-c3c(Cl)cc(Cl)cc3OCCn3cccn3)c2C1)C12CC(C1)C2 7.3

Could you now look at the following molecule, please?
Name the recorded Ki of the molecule listed here: `CC(C)(CC(F)(F)F)NC(=O)N1Cc2nc(N)nc(-c3c(Cl)cc(Cl)cc3OCCn3cc(F)cn3)c2C1` 2.1

###

Assay text: Volume of distribution at steady state in wild type mouse
Assay type: ADME, organism-based
Condition label: in vivo, read-out: Vdss
Below is a list of entries, each paired with its recorded Vd value.
// units = L/kg; emit number, no label

Compound	Vd / L/kg
CC[C@H](C)C(=O)O[C@H]1C[C@H](O)C=C2C=C[C@H](C)[C@H](CC[C@@H](O)C[C@@H](O)CC(=O)O)[C@H]21 [PRAVASTATIN]	0.27

Name the recorded Vd of the compound listed here: CCC(C)(C)C(=O)O[C@H]1C[C@@H](C)C=C2C=C[C@H](C)[C@H](CC[C@@H]3C[C@@H](O)CC(=O)O3)[C@H]21 [SIMVASTATIN] 14

###

Species on record: Homo sapiens
Assay text: Unbound volume of distribution at steady state in human
Type: ADME, organism-based
Condition label: in vivo
Observable: Vduss (L/kg)
// units = L/kg; emit number, no label

Take a look at these entries with their results.
Compound	Observable	Unit info	Test result
COCCc1ccc(OCC(O)CNC(C)C)cc1 (stereo unspecified)	Vduss	L/kg	4
COc1ccc2c(c1)c(CC(=O)O)c(C)n2C(=O)c1ccc(Cl)cc1	Vduss	L/kg	9.6
OC(Cn1cncn1)(Cn1cncn1)c1ccc(F)cc1F	Vduss	L/kg	0.84

Name the recorded Vduss of the compound listed here: CN(C)CCC(c1ccc(Cl)cc1)c1ccccn1 (stereo unspecified) 178

Name the recorded Vduss of the compound listed here: CC(C)NCC(O)COc1ccc(CCOCC2CC2)cc1 (stereo unspecified) 13

Name the recorded Vduss of the compound listed here: CNCCC(Oc1ccc(C(F)(F)F)cc1)c1ccccc1 (stereo unspecified) 71
